- tested_on: Solute carrier family 22 member 12 (Homo sapiens)
- Sequence (Q96S37 whole entry): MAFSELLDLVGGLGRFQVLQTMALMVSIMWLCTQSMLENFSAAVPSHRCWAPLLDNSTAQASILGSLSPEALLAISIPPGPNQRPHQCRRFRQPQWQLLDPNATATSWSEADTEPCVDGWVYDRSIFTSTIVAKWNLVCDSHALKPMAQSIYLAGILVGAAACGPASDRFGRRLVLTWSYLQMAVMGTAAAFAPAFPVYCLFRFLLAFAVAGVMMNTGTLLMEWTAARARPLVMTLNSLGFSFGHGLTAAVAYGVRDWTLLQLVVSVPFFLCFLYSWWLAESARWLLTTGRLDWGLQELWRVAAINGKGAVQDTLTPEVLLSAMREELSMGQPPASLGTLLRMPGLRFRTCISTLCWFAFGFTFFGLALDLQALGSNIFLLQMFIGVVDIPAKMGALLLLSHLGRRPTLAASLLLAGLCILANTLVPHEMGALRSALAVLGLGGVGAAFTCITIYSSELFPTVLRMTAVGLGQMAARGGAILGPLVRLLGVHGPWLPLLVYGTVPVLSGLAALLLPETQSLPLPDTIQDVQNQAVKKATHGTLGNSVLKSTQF
- experiment_notes: hURAT1 Inhibition Assay: Human embryonic kidney cells (HEK293) was incubated in DMEM tissue culture medium, at 37° C., under 5% CO2 and 95% air atmosphere. TransIT-293 transfection agent (MIRUS BIO, Cat. No. MIR2706) and model URAT1 were used to construct transfected HEK293 cells. Transfected HEK293/hURAT1 cells were used to the test for 14C-uric acid transport activity. HEK293/hURAT1 cells were seeded in a 96-well plate (BD, Cat. No. 356461) fully coating with poly-D-lysine at a density of 6×10^4 cells per well. Cells were incubated at 37° C. for at least 12 hrs in the calorstat, and then washed with pre-heated washing buffer (125 mM sodium gluconate, 10 mM HEPES pH=7.4) at an amount of 200 μL per well to wash out the culture medium. The uric acid [8-14C] (ARC, Cat. No. ARC0513-250UCI) containing or not containing the compound was added to 50 μL HBSS buffer which was free of chloric ion each well (HBSS buffer: 125 mM sodium gluconate, 4.8 mM potassium gluconate, 1.3 mM calcium gluconate, 1.2 mM potassium dihydrogen phosphate, 1.2 mM magnesium sulfate, 5.6 mM glucose, 25 mM HEPES pH=7.4) to make the specific concentration of the uric acid 1 μCi per well. The incubating solution was removed after 10 mins incubation, followed by adding 100 μL cold washing buffer, after washing with this buffer for 3 times, the buffer was completely removed from the well.
# 1 = IC50 below 40 nM (exclusive); 0 = IC50 at/above 40 nM

Answered examples (3):
{"compound": "C[C@@H](CC(=O)O)c1cc2cncc(-c3ccc(C#N)cc3)c2s1", "label_class": 0}
{"compound": "C[C@@H](Oc1ccc2cncc(-c3ccc(C#N)cc3)c2c1)C(=O)O", "label_class": 0}
{"compound": "C[C@H](Oc1ccc2cncc(-c3ccc(C#N)cc3)c2c1)C(=O)O", "label_class": 0}

# TODO verify IC50 < 40 nM strictly for this molecule: `C[C@@H](CC(=O)O)c1cc2c(-c3ccc(C#N)c4ccccc34)cncc2s1`
1

# TODO verify IC50 < 40 nM strictly for this molecule: `C[C@H](CC(=O)O)c1cc2cncc(-c3ccc(C#N)cc3)c2s1`
1

# TODO verify IC50 < 40 nM strictly for this molecule: `C[C@H](CC(=O)O)c1cc2cncc(-c3ccc(C#N)c4ccccc34)c2s1`
0

# TODO verify IC50 < 40 nM strictly for this molecule: `C[C@H](CC(=O)O)c1cc2c(-c3ccc(C#N)c4ccccc34)cncc2s1`
1

# TODO verify IC50 < 40 nM strictly for this molecule: `C[C@@H](CC(=O)O)c1cc2cncc(-c3ccc(C#N)c4ccccc34)c2s1`
1

# TODO verify IC50 < 40 nM strictly for this molecule: `CC(C)(Sc1ccc2cncc(-c3ccc(C#N)c4ccccc34)c2c1)C(=O)O`
1

These entries and their values trace back to ChEMBL document CHEMBL5725778.
